Task for the reader: assign each of the following compounds its reported GI50.
test system: SK-MEL-28 melanoma; assay: NCI tumour cell line growth inhibition, 48 h

Exam item: Tell me GI50 of `COc1cc(-c2cc(-c3ccc(Nc4ccnc5cc(Cl)ccc45)cc3)nc(N3CCOCC3)n2)cc(OC)c1OC` when tested on SK-MEL-28 melanoma.
Marked response: 1.98 µM

Exam item: Tell me GI50 of `CCCCCCNC(=O)Oc1ccc(/C(=C(/C)Cc2ccc(OC)cc2)c2ccc(OCCCN(C)C)cc2)cc1` when tested on SK-MEL-28 melanoma.
Marked response: 14.5 µM

Exam item: Tell me GI50 of `Nc1ccccc1.[C-]#[O+].[C-]#[O+].[C-]#[O+].[C-]#[O+].[C-]#[O+].[Cr]` when tested on SK-MEL-28 melanoma.
Marked response: 4.52 µM

Exam item: Tell me GI50 of `O=C(O)c1cn(C2CC2)c2cc(N3CCN(C(=O)Nc4nc(-c5ccccc5)cs4)CC3)c(F)cc2c1=O` when tested on SK-MEL-28 melanoma.
Marked response: 0.705 µM
